Test system: Wolbachia pipientis
Assay: Anti-Wolbachia Cell-Based Screen
Type: functional
Design: scale not given: in the data most compounds retested in dose-response had high values
Conditions: 5 µM
Screen size: about 48,000 compounds; about 13,000 (27%) showed an effect of 50% or more. The list shows a part of the results.
value kind: Percent Effect (%)

• Cc1ncc(-c2ccnc(NCCO)n2)c(C2CCCCC2)n1 = 70.45
• O=C(C1CC1)N1C[C@H]2CCCN(S(=O)(=O)c3cccc(F)c3)[C@H]2C1 = 149
• O=C(C1CC1)N1C[C@H]2CCCN(S(=O)(=O)c3ccc4c(c3)CCC4)[C@H]2C1 = 109.7
• CC(=O)N1CCc2ccc(S(=O)(=O)N3CCCCC3C)cc21 (stereo not given) = -39.69
• COCCC(C)NC(=O)N1CCSC(C)(C)C1 (stereo not given) = -17.32
• CC(=O)N1CCCc2ccc(S(=O)(=O)N3CCCCC3C)cc21 (stereo not given) = -24.19
• CC(=O)N1CCCC(C(=O)N2CCC(=Cc3cccc(F)c3)CC2)C1 (stereo not given) = 11.44
• O=C(O)C(F)(F)F.O=S(=O)(c1cccc(F)c1)N1CC[C@H]2[C@H]1CCN2c1ncccn1 = -6.82
• CCC(Nc1nccc(C2CCCC2)n1)c1ncccc1C (stereo not given) = -9.409
• CC(C)CN1C[C@H]2CCN(C(=O)C3CCCO3)CC[C@H]2S1(=O)=O (stereo not given in full) = -18.66

meta.source: ChEMBL document CHEMBL3988442
